Biological target: UniProtKB P10275
Sequence (P10275 whole entry): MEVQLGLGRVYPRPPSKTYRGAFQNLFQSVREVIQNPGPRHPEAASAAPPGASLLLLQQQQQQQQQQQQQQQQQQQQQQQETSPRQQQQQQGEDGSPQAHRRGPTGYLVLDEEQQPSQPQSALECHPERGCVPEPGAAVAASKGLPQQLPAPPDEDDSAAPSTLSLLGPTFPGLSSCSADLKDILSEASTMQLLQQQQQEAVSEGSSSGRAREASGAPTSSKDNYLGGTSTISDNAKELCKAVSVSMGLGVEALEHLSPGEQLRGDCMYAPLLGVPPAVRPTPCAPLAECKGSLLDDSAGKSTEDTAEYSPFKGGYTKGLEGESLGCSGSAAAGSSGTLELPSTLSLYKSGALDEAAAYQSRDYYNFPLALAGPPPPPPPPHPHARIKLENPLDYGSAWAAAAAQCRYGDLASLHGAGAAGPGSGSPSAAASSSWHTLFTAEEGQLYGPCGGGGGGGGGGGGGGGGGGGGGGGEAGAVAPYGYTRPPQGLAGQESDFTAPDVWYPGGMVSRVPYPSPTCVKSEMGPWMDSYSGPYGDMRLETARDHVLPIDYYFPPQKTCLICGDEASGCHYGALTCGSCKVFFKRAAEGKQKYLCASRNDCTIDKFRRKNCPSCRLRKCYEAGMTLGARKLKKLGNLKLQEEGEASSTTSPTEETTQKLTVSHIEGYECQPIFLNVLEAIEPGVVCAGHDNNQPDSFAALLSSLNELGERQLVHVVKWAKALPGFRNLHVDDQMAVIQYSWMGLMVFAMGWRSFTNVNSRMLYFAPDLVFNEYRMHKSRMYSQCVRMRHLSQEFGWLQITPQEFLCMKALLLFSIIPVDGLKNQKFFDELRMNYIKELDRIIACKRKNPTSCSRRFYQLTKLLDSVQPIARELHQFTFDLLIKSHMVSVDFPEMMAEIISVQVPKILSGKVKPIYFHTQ
reportedEndpoint: Ki (nM)

Worked set:
CCCCC1Oc2ccc(F)cc2-c2ccc3c(c21)C(C)=CC(C)(C)N3 (configuration not stated); 1330
CCCCC1Oc2ccc(OC)cc2-c2ccc3c(c21)C(C)=CC(C)(C)N3 (configuration not stated); 785
CCCCC1Oc2ccc(Cl)cc2-c2ccc3c(c21)C(C)=CC(C)(C)N3 (configuration not stated); 886
CCCOC1Oc2ccc(Cl)cc2-c2ccc3c(c21)C(C)=CC(C)(C)N3 (configuration not stated); 697

A = CC1=CC(C)(C)Nc2ccc3c(c21)C(C)Oc1ccc(Cl)cc1-3 (configuration not stated)
B = CC1=CC(C)(C)Nc2ccc3c(c21)C(CCC(C)C)Oc1ccccc1-3 (configuration not stated)
Task: For the two items A and B , which reports the higher Ki value? Please reply using the label of the selected record.
Result: B
(B: 1480 nM, A: 621 nM)
